system: USX 3A (synthetic)
result.type: Kd (nM)
Respond numerically; units are nM and should not be typed.

Tested system USX 3A (synthetic); Kd recorded for GCCGGGGAG (double strand) [USX 3A target] was 0.06

###

system: BVO 13A (synthetic)
pKd: −log10 of the molar value.
result.type: pKd

The sequence ATGGACGGG (double strand) [BVO 13A / MX1E target] showed pKd equal to > 10.70

###

test system: VOP 30A-4 (synthetic)
pKd: −log10 of the molar value.
result.type: pKd

Lab note: sequence GCTGGGGGC (double strand) [VOP 30A-4 target] tested on VOP 30A-4 (synthetic); recorded pKd was > 10.70

Data origin, for the record: patent US20050267061
